Entries and their pIC50
Target: Androgen receptor (Homo sapiens, UniProt P10275, F877L)
Sequence (P10275 whole entry F877L): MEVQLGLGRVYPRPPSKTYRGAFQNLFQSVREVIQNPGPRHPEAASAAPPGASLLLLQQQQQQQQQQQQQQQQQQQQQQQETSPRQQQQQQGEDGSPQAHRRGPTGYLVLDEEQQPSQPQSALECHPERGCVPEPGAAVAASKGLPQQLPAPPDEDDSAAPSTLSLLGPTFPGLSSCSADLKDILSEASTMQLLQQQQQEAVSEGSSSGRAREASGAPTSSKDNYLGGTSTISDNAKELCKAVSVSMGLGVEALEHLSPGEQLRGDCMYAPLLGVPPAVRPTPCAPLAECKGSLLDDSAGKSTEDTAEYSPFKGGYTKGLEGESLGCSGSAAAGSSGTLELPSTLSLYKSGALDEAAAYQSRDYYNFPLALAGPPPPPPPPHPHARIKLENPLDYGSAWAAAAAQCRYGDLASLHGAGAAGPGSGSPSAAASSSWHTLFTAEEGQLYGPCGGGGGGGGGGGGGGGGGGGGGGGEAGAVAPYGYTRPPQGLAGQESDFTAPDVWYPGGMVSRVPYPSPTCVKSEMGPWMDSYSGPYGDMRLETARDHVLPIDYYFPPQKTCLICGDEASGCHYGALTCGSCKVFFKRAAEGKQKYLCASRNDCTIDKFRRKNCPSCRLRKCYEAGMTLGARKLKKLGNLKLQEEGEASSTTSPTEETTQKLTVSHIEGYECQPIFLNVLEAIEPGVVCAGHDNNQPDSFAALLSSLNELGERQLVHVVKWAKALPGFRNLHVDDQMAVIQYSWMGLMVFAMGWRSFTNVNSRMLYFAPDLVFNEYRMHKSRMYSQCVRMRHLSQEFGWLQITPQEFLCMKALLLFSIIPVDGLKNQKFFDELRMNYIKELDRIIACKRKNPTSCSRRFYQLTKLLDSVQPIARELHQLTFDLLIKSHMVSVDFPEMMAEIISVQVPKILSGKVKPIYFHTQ
Test: Antagonist activity at androgen receptor F877L mutant in human PC-3 cells assessed as inhibition of transcriptional activity measured after 24 hrs by luminescence based microplate reader assay
Type: cell-based
pIC50: −log10 of the molar value.
observable: pIC50

In [3]: df
Out[3]:
                           structure_smiles  meas_value
0  N#Cc1ccc(-n2ccc(CC(=O)Nc3ccc(F)cc3)n2)cc1C(F)(F)F        6.04
1  N#Cc1ccc(-n2ccc(CC(=O)Nc3ccc(F)nc3)n2)cc1Cl        6.77
2  N#Cc1ccc(-n2ccc(CC(=O)Nc3ccc(F)nc3)n2)cc1C(F)(F)F        5.88
